Kindly state hEphA4-SEAP-: absorbance at 450 nm, percentage with respect to hEphA4-SEAP-His as 100% for each of the entries shown.
- subject-of-test: T1, human EphA4 (Homo sapiens, UniProt P54764)
- T1 construct: made in house; not restated for the human SEAP-His protein
- assay-comment: Selectivity ELISA of humanized antibodies for human Eph receptor
- Type: binding
- condition-parameters: coated protein 1 nM; reference set to 100%
Numbers only, in %.

molecule	measured-result
95 (antibody, V domains shown, constant regions without entry; synthetic humanized antibody light chain variable region sequence; synthetic humanized antibody heavy chain variable region sequence) VL: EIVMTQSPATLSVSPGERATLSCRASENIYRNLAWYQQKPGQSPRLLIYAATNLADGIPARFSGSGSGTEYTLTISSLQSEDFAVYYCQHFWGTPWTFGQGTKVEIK VH: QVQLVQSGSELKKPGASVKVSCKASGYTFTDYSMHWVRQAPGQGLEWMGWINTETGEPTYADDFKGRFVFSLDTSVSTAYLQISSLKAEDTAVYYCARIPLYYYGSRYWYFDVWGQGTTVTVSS	100

Consider the record given below.
*Q* Need hEphA4-SEAP-: absorbance at 450 nm, percentage with respect to hEphA4-SEAP-His as 100% of 138 (antibody, V domains shown, synthetic humanized antibody heavy chain variable region sequence; synthetic humanized antibody light chain variable region sequence) VH: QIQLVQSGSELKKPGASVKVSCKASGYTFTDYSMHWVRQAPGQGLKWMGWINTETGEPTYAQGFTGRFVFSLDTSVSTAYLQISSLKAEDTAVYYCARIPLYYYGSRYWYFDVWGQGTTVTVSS VL: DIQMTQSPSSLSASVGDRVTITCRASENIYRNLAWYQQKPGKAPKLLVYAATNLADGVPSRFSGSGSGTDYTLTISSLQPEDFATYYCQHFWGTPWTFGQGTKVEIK , thanks.
*A* 100
